Biological target: T1, dog serum albumin (dog, UniProt P49822 25-608)
T1 construct: bought protein, amine-coupled to a CM5 chip; also called Dog SA
Test: SPR (Biacore 8K), albumin immobilised, 25 C, 1:1 kinetics
Property Measured: koff

For reference, reported koff for INS Analog 27 (other, single-chain insulin B-L2-A-L1-VHH fusion; also called Ex. 27) FVSQHLCGSHLVEALRLVCGERGFFYTPKTGGGGGGGIVEQCCHSICSLYQLENYCGGGGGQGGGGQGGGGQGGGGQGGGGQEVQLLESGGGLVQPGGSLRLSCAASGRYIDETAVAWFRQAPGKEREFVAGIGGGVDITYYADSVKGRFTISRDNSKNTLYLQMNSLRPEDTAVYYCAARPGRPLITSKVADLYPYWGQGTLVTVSSPP stands at 0.003 s⁻¹
